B1: ZNF511 (parent)
chain: HLYPADFRFDKPKKSRSPASAEAP

# Variants of: B1
# PROCEDURE_TEXT: protein stability index of a GFP-peptide fusion (GPS, HEK-293T) (PSI 1-6); higher = more stable;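 further: lentivirally expressed fusions sorted by FACS into six bins by GFP to DsRed ratio, PSI derived from sequencing read proportions per bin multiplied by bin number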
# MEASUREMENT_SETUP: c terminus: a fixed tail appended
Recorded protein stability index by entry

[
  {
    "VARIANT_ANNOTATION": "A19N",
    "protein stability index": 2.56
  },
  {
    "VARIANT_ANNOTATION": "K11L",
    "protein stability index": 2.72
  },
  {
    "VARIANT_ANNOTATION": "R16P",
    "protein stability index": 3.2
  },
  {
    "VARIANT_ANNOTATION": "A5P",
    "protein stability index": 4.01
  },
  {
    "VARIANT_ANNOTATION": "A5D",
    "protein stability index": 2.32
  },
  {
    "VARIANT_ANNOTATION": "F9K",
    "protein stability index": 4.12
  },
  {
    "VARIANT_ANNOTATION": "K13A",
    "protein stability index": 3.07
  },
  {
    "VARIANT_ANNOTATION": "P4Q",
    "protein stability index": 3.94
  },
  {
    "VARIANT_ANNOTATION": "P18Q",
    "protein stability index": 2.56
  },
  {
    "VARIANT_ANNOTATION": "D10C",
    "protein stability index": 2.15
  },
  {
    "VARIANT_ANNOTATION": "P4V",
    "protein stability index": 3.24
  },
  {
    "VARIANT_ANNOTATION": "A21L",
    "protein stability index": 2.38
  },
  {
    "VARIANT_ANNOTATION": "P24G",
    "protein stability index": 2.42
  },
  {
    "VARIANT_ANNOTATION": "K13I",
    "protein stability index": 3
  },
  {
    "VARIANT_ANNOTATION": "A5I",
    "protein stability index": 3.5
  },
  {
    "VARIANT_ANNOTATION": "S20D",
    "protein stability index": 2.97
  },
  {
    "VARIANT_ANNOTATION": "R8L",
    "protein stability index": 1.77
  },
  {
    "VARIANT_ANNOTATION": "E22Y",
    "protein stability index": 2.34
  },
  {
    "VARIANT_ANNOTATION": "R16I",
    "protein stability index": 2.6
  },
  {
    "VARIANT_ANNOTATION": "F7P",
    "protein stability index": 4.24
  },
  {
    "VARIANT_ANNOTATION": "F7M",
    "protein stability index": 4.38
  },
  {
    "VARIANT_ANNOTATION": "S20V",
    "protein stability index": 2.82
  },
  {
    "VARIANT_ANNOTATION": "R8I",
    "protein stability index": 2.03
  },
  {
    "VARIANT_ANNOTATION": "D10F",
    "protein stability index": 2.83
  },
  {
    "VARIANT_ANNOTATION": "S20A",
    "protein stability index": 3.32
  },
  {
    "VARIANT_ANNOTATION": "Y3I",
    "protein stability index": 3.73
  },
  {
    "VARIANT_ANNOTATION": "D10M",
    "protein stability index": 2.99
  },
  {
    "VARIANT_ANNOTATION": "K11H",
    "protein stability index": 2.98
  },
  {
    "VARIANT_ANNOTATION": "L2D",
    "protein stability index": 4.91
  },
  {
    "VARIANT_ANNOTATION": "P4E",
    "protein stability index": 4.33
  },
  {
    "VARIANT_ANNOTATION": "K13W",
    "protein stability index": 2.58
  },
  {
    "VARIANT_ANNOTATION": "R16Y",
    "protein stability index": 2.13
  },
  {
    "VARIANT_ANNOTATION": "P12N",
    "protein stability index": 2.65
  },
  {
    "VARIANT_ANNOTATION": "P4R",
    "protein stability index": 3.73
  },
  {
    "VARIANT_ANNOTATION": "P4A",
    "protein stability index": 3.96
  }
]
